- Tested on: NCI-H522 lung
- experiment description: NCI-60 one-dose screen, 48 h
- conditions used: 10 µM
This is part of a sample that, as a whole, favours compounds with a hit. Of some 83,000 tested, about 20% had one in any assay. Active and inactive are the calls of the source. The calls were made as follows: active = growth percent below 10; inactive = the rest.
Possible outcomes: 1 (yes) = active, 0 (no) = inactive

# molecule, measurement target, answer label
data = [
    ("C#Cc1cccc(NC(=O)c2ccc(Cl)cc2Cl)c1", "NCI-H522 lung", "0 (no)"),
    ("CC1OC(Oc2c(-c3ccc(O)c(O)c3)oc3cc(O)cc(O)c3c2=O)C(O)C(O)C1O (configuration not stated)", "NCI-H522 lung", "0 (no)"),
    ("N#CC1(Nc2ccc3c4c(cccc24)CC3)CCCCC1", "NCI-H522 lung", "0 (no)"),
    ("CCCCCCCCCCCCCC(=O)Oc1ccc[nH]c1=O", "NCI-H522 lung", "0 (no)"),
    ("COCCOCCCl", "NCI-H522 lung", "0 (no)"),
    ("CNS(=O)(=O)c1ccc(Cl)c(Cl)c1", "NCI-H522 lung", "0 (no)"),
    ("Cc1cc(O)ccc1O", "NCI-H522 lung", "0 (no)"),
    ("CC(=O)Nc1ccc(NC(C)=O)c2c1C(=O)c1ccccc1C2=O", "NCI-H522 lung", "0 (no)"),
    ("CCOC(=O)/C(=C/c1ccc(OC)cc1)N(CC)CC", "NCI-H522 lung", "0 (no)"),
    ("Nc1ccccc1C(=O)Nc1ccc(Cl)cc1Cl", "NCI-H522 lung", "0 (no)"),
    ("COc1ccccc1C1OC2=Nc3cc(C)c(C)cc3NC2C1=O (configuration not stated)", "NCI-H522 lung", "0 (no)"),
    ("COc1nc(N)nc2c1ncn2C1OC(CO)CC1O (configuration not stated)", "NCI-H522 lung", "0 (no)"),
    ("CCOC(=O)CSc1c([N+](=O)[O-])ncn1C", "NCI-H522 lung", "0 (no)"),
    ("CN(C)CCC(=O)c1ccc(O)cc1", "NCI-H522 lung", "0 (no)"),
    ("Cc1cc(C)cc(NCCC#N)c1", "NCI-H522 lung", "0 (no)"),
    ("CC(=O)OCCO", "NCI-H522 lung", "0 (no)"),
    ("N/N=C(/Cc1ccccc1)NNC(N)=S", "NCI-H522 lung", "0 (no)"),
    ("COC(=O)c1[nH]c(=O)c(C#N)c(C(=O)OC)c1C(=O)c1ccccc1", "NCI-H522 lung", "0 (no)"),
    ("COc1ccccc1NC(=O)C1=C(C)NC(C)=C(C(=O)Nc2ccccc2OC)C1c1cccc([N+](=O)[O-])c1", "NCI-H522 lung", "0 (no)"),
    ("Cc1cc(C)c(N)c(S(=O)(=O)O)c1", "NCI-H522 lung", "0 (no)"),
    ("CN(C)c1ccc(CNC(C(=O)c2ccccc2)c2ccccc2)cc1 (configuration not stated)", "NCI-H522 lung", "0 (no)"),
    ("O=C(CCNNC(=O)c1ccncc1)NCc1ccccc1", "NCI-H522 lung", "0 (no)"),
    ("CC1SC(N)=NC1=O (configuration not stated)", "NCI-H522 lung", "0 (no)"),
    ("CCOC(=O)CNN", "NCI-H522 lung", "0 (no)"),
    ("Nc1ccc(CC(=O)O)c(N)c1", "NCI-H522 lung", "0 (no)"),
    ("COc1ccc2c(NCCCCCCCCNc3c4ccccc4nc4cc(OC)ccc34)c3ccccc3nc2c1", "NCI-H522 lung", "1 (yes)"),
    ("Cc1ccncc1C(N)=O", "NCI-H522 lung", "0 (no)"),
    ("CCCCC(CC)COC(C)=O (configuration not stated)", "NCI-H522 lung", "0 (no)"),
    ("Cc1ccc(Cl)cc1N1C(=O)CC(Sc2ccccc2N)C1=O (configuration not stated)", "NCI-H522 lung", "0 (no)"),
    ("COc1ccc(C)cc1OC", "NCI-H522 lung", "0 (no)"),
    ("CCOC(=O)c1coc(C(=O)OCC)c1C(=O)OCC", "NCI-H522 lung", "0 (no)"),
    ("NC(=O)N/N=C\\c1ccco1", "NCI-H522 lung", "0 (no)"),
    ("COC(=O)C(C)Oc1ccc(OC#N)cc1 (configuration not stated)", "NCI-H522 lung", "0 (no)"),
    ("Cc1cc(=O)[nH]c(NN=C2CCCC2)n1", "NCI-H522 lung", "0 (no)"),
    ("Cc1ccc(/C=C2\\SC(=S)N(c3ccc(F)cc3)C2=O)o1", "NCI-H522 lung", "0 (no)"),
    ("O=C1C[C@H](c2ccccc2)[C@H](c2ccccc2)C1", "NCI-H522 lung", "0 (no)"),
    ("CC1(C(N)=O)CCC(C(=O)O)C1(C)C (configuration not stated)", "NCI-H522 lung", "0 (no)"),
    ("CCC/C=C(/C(C)=O)C(=O)OCC", "NCI-H522 lung", "0 (no)"),
    ("C=CC(O)CCC (configuration not stated)", "NCI-H522 lung", "0 (no)"),
    ("CC(=O)N(C)c1ccc([N+](=O)[O-])cc1", "NCI-H522 lung", "0 (no)"),
    ("O=c1cc2oc3cc(O)c(O)cc3c(-c3ccccc3O)c-2cc1O", "NCI-H522 lung", "0 (no)"),
    ("CN(C)c1ccc(S(=O)(=O)O)cc1", "NCI-H522 lung", "0 (no)"),
    ("Nc1nc(N)c2cc(S(=O)(=O)c3cccc(C(F)(F)F)c3)ccc2n1", "NCI-H522 lung", "0 (no)"),
    ("O=C(CN1CCNCC1)N1CCOCC1", "NCI-H522 lung", "0 (no)"),
    ("CC(C)NC(=O)OCc1c(COC(=O)NC(C)C)c(-c2ccc(Cl)c(Cl)c2)n2c1SCC2", "NCI-H522 lung", "0 (no)"),
    ("O=C(O)CCC(NC(=O)OCc1ccccc1)C(=O)O (configuration not stated)", "NCI-H522 lung", "0 (no)"),
    ("CC(C)(C)c1cc(O)c(C(C)(C)C)cc1O", "NCI-H522 lung", "0 (no)"),
    ("NC(N)=Nc1cc2ccccc2c2ccccc12", "NCI-H522 lung", "1 (yes)"),
    ("C/C=C/CC(C)C(O)C1C(=O)NC(CC)C(=O)N(C)CC(=O)N(C)C(CC(C)C)C(=O)NC(C(C)C)C(=O)N(C)C(CC(C)C)C(=O)NC(C)C(=O)NC(C)C(=O)N(C)C(CC(C)C)C(=O)N(C)C(CC(C)C)C(=O)N(C)C(C(C)C)C(=O)N1C (configuration not stated)", "NCI-H522 lung", "1 (yes)"),
    ("CC(=O)OC(C(=O)O)c1ccccc1 (configuration not stated)", "NCI-H522 lung", "0 (no)"),
    ("NC(=S)NN=C1CCCC1", "NCI-H522 lung", "0 (no)"),
    ("CC(C)OC(=O)c1cc(NC(=S)OC(C)C)ccc1Cl", "NCI-H522 lung", "0 (no)"),
]
